- assayed_target: full-length human PLD1 (Homo sapiens (Human), UniProt Q13393)
- Sequence (Q13393 other isoform, or with tags, fused parts or gaps): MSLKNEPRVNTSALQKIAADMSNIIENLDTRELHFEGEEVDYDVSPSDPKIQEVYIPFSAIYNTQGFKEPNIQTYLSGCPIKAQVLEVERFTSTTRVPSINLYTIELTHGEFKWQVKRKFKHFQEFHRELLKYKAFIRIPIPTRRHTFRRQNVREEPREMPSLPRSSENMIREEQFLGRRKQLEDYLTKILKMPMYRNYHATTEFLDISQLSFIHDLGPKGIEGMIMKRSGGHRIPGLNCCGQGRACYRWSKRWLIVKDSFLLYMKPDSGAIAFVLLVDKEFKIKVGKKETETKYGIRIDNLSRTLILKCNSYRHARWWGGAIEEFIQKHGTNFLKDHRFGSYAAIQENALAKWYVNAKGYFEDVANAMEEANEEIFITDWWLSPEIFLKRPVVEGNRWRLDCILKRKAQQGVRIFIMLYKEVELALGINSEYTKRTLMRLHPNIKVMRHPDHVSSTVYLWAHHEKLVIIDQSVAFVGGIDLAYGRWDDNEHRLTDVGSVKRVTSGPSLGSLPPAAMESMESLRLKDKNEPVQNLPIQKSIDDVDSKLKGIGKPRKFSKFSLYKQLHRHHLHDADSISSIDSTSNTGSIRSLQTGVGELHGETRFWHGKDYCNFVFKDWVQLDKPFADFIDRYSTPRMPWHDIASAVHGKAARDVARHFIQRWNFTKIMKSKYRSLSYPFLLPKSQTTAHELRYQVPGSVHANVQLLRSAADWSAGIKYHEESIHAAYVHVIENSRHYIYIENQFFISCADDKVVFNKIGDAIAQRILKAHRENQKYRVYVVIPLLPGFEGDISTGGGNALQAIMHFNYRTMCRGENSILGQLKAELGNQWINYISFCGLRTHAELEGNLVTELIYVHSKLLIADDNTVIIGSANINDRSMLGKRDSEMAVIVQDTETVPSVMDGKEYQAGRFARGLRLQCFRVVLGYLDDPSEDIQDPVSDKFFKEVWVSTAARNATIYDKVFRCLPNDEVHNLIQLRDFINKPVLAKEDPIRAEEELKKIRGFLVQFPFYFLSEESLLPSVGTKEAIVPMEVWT
- test_summary: Evaluation of human PLD1 enzyme inhibitory activity (Amplex Red / choline oxidase fluorescence)
- Assay type: biochemical
- condition_description: full-length human PLD1 enzyme; read-out: PLD1 IC50
measured_endpoint: pIC50
Scale for pIC50: -log10 of concentration given in mol/L; no unit attached.

Illustrative cases are given below, each with its answer.
molecule	pIC50
Cc1cc(C(=O)N[C@@H](C)C[C@H]2CC[C@]3(CC2)OC(=O)NN=C3c2ccc(S(C)(=O)=O)cc2)[nH]n1 [Example 9]	7.08
CNC(=O)C(=O)N[C@@H](C)C[C@H]1CC[C@]2(CC1)OC(=O)NN=C2c1cnc(N2CCOCC2)cc1Cl [Example 242]	7.80
Cc1cc(Cl)c(C2=NNC(=O)O[C@]23CC[C@@H](C[C@H](C)NC(=O)c2cc(C)n[nH]2)CC3)cn1 [Example 231]	7.62
CNC(=O)C(=O)N[C@@H](C)C[C@H]1CC[C@]2(CC1)OC(=O)NN=C2c1cccc2c1OCC2 [Example 106]	7.59
CNC(=O)C(=O)N[C@@H](C)C[C@]1(C#N)CC[C@@]2(CC1)OC(=O)NN=C2c1ccc(C#N)cc1Br [Example 2-065]	7.68
Cc1cc(C(=O)N[C@@H](C)CN2CCC3(CC2)OC(=O)NN=C3c2ccc(C#N)cc2Br)on1 [Example 2-062]	7.60

Q) Can you look up the measured pIC50 of CNC(=O)C(=O)N[C@@H](C)C[C@H]1CC[C@]2(CC1)OC(=O)NN=C2c1ccc(OC)cc1Br [Example 58] for me?
A) 7.85

Q) Moving on to the next molecule: C[C@@H](C[C@H]1CC[C@]2(CC1)OC(=O)NN=C2c1ccc(F)cc1Cl)NC(=O)c1cc2cc(S(C)(=O)=O)ccc2[nH]1 [Example 62]
A) 6.85

Q) Moving on to the next molecule: CNC(=O)C(=O)N[C@@H](C)C[C@H]1CC[C@]2(CC1)OC(=O)NN=C2c1cc(C(=O)OC)ccc1Br [Example 2-032]
A) 7.96

Q) Moving on to the next molecule: CNC(=O)C(=O)N[C@@H](C)C[C@H]1CC[C@]2(CC1)OC(=O)NN=C2c1ccc(F)cc1OC [Example 54]
A) 7.70

---

pIC50 values, listed per item
- assayed_target: full-length human PLD1 (Homo sapiens (Human))
- test_summary: Evaluation of human PLD1 enzyme inhibitory activity (Amplex Red / choline oxidase fluorescence)
- Assay type: biochemical
- condition_description: full-length human PLD1 enzyme; read-out: PLD1 IC50
Scale for pIC50: -log10 of concentration given in mol/L; no unit attached.

compound	pIC50
C[C@@H](C[C@H]1CC[C@]2(CC1)OC(=O)NN=C2c1ccc(OC(F)F)cc1Br)NC(=O)c1cc(Cl)n[nH]1	7.96
C[C@@H](C[C@H]1CC[C@]2(CC1)OC(=O)NN=C2c1ccc(F)cc1Br)NC(=O)CC#N	6.64
C[C@@H](C[C@H]1CC[C@]2(CC1)OC(=O)NN=C2c1cnc(C2CC2)cc1Cl)NC(=O)N1CCn2nccc2C1	7.77

Q) Can you look up the measured pIC50 of CNC(=O)C(=O)N[C@@H](C)C[C@H]1CC[C@]2(CC1)OC(=O)NN=C2c1cc(OC(F)(F)F)ccc1Br for me?
A) 7.96

Q) Moving on to the next compound: C[C@@H](CN1CCC2(CC1)OC(=O)NN=C2c1cc(C#N)ccc1Br)NC(=O)C1COCCO1 (mixture of isomers)
A) 5.76

Q) Moving on to the next compound: C[C@@H](C[C@H]1CC[C@]2(CC1)OC(=O)NN=C2c1ccccc1SC(F)(F)F)NC(=O)c1cnn(C)c1
A) 7.68
